subject of test: UniProtKB Q2NNR5
Sequence (Q2NNR5 whole entry): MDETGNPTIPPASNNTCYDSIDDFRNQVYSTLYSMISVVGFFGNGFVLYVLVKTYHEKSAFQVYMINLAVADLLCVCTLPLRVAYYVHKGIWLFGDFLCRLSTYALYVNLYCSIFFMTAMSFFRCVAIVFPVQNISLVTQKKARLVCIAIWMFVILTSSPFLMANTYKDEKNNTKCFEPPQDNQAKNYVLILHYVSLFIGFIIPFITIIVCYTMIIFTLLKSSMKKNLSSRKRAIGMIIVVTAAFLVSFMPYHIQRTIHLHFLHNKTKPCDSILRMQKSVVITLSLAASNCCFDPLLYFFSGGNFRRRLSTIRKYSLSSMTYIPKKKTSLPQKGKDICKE
readout name: pKi
# pKi is unitless: minus log10 of the molar concentration; print number only

Case "CN(O)C(=O)Cc1ccc(OCc2ccc3ccccc3n2)cc1" , UniProtKB Q2NNR5, pKi recorded as 6.00

###

Test system: Mus musculus
run description: In vivo inhibition of mouse ear inflammation
Assay type: functional
Parameters: concentration or dose not given beside the values
Classify as follows. Reported Inhibition greater than or equal to 50%: true (1). Reported Inhibition below: false (0).

Answered examples (8):
1. O=C(Cc1ccc(OCc2ccccc2)cc1)N(O)Cc1ccccc1 : false (0)
2. O=C(CCc1ccccc1)N(O)CCCc1ccccc1 : true (1)
3. O=C(O)CCCN(O)C(=O)CCCc1ccccc1 : false (0)
4. O=C(CCCCc1ccccc1)N(O)Cc1ccccc1 : true (1)
5. O=C(CCCc1ccccc1)N(O)CCc1ccccc1 : true (1)
6. O=C(Cc1ccc(OCc2ccccc2)cc1)N(O)CCCc1ccccc1 : false (0)
7. CCCN(O)C(=O)Cc1ccc(OCc2ccccc2)cc1 : true (1)
8. CC(c1ccccc1)N(O)C(=O)Cc1ccc(OCc2ccccc2)cc1 (centres undefined) : false (0)

Incoming: Is it the case that "CCOC(=O)CCCN(O)C(=O)CCCc1ccccc1" has Inhibition reaching or exceeding 50%?
Outgoing: true (1)

Incoming: Is it the case that "CN(O)C(=O)Cc1cccc(OCc2ccc3ccccc3n2)c1" has Inhibition reaching or exceeding 50%?
Outgoing: true (1)

###

Recorded pIC50 by entry
subject of test: Polyunsaturated fatty acid 5-lipoxygenase (Rattus norvegicus, UniProt P12527)
Sequence (P12527 whole entry): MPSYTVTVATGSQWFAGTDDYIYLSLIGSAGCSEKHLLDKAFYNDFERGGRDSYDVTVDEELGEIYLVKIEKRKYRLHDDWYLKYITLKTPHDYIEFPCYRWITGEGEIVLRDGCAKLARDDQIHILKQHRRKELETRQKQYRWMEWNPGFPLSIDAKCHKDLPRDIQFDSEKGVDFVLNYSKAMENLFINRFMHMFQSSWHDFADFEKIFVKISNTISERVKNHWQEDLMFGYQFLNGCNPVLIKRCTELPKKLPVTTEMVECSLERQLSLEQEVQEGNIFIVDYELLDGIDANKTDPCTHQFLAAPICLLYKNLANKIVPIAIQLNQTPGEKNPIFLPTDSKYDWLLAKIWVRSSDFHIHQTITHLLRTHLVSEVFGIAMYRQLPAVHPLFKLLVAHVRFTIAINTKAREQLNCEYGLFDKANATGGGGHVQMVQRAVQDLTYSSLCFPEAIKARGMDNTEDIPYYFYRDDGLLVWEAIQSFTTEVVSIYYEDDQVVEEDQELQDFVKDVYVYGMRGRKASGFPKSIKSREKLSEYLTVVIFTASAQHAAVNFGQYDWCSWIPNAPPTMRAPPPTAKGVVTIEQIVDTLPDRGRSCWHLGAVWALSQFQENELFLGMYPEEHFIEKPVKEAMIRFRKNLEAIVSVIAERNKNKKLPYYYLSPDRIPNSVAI
# pIC50 is unitless: minus log10 of the molar concentration; print number only

1. O=C(COc1ccccc1)N(O)CCc1ccccc1 : 6.00
2. COc1ccc(CC(=O)N(O)CCc2ccccc2)cc1 : 6.00
3. O=C(CCCCc1ccccc1)N(O)Cc1ccccc1 : 7.30

# pIC50 of CC(C(=O)N(O)CCc1ccccc1)c1cccc(OCc2ccccc2)c1 (stereo not drawn) = 6.52

# pIC50 of "CN(O)C(=O)Cc1ccc(OCc2ccc3ccccc3n2)cc1" = 6.46

# pIC50 of "O=C(CCc1ccccc1)N(O)CCCc1ccccc1" = 7.00

# pIC50 of "O=C(Cc1ccc(OCc2ccccc2)cc1)N(O)CCCc1ccccc1" = 6.30

# pIC50 of "COc1ccc(CCCC(=O)N(O)CCc2ccccc2)cc1" = 6.92
